The values you see were collected from the supplement of paper PMC9170038.

Test system: MS2 coat protein
Assay: apparent KD of MS2 coat protein; higher = weaker reporter binding
Conditions: Eterna round: R107; input ligand: tryptophan 2.4 mM
Could you please report measured apparent KD of MS2 coat protein for the items listed next?
Your answer should be a plain number; it is taken to be in nM.

Result for GGCUAGGCUAGCGAUACCAGCAACCAACAUGAUCUGAGGAUCACCCAGGUAGUUGGACGUUGCCCUUGGCAGCGCUAGCCUAGCC [SSThB NP+V+V2 #12 Diff Apt, Same Structure] , tested on MS2 coat protein, apparent KD of MS2 coat protein: 15.5

Result for UUAAGAGGCUAUCCACUUUGAUUUUGUGAUACCAGAAUAAUUUUAUUCCCUUGGCAGCAUGACAUGAGGAUCACCCAUGUGUCUU [SSTheo A #3] , tested on MS2 coat protein, apparent KD of MS2 coat protein: 36.9

Result for GGUUACUCUACGGCCGCCACUGGGCAUGUAAAUAACAUGAGGAUCACCCAUGUGGAUUAAUAUUACAGGACCGGGUAGUGUAACC [Tryptophan B 23] , tested on MS2 coat protein, apparent KD of MS2 coat protein: 25.1

Result for GUUGGAUUCUCGGCCGCCACUGAGAGAGUCAUGUGAACAUGAGGAUCACCCAUGUAAUAUAUAUACAGGACCGGGAGGGUUGUAA [4.K] , tested on MS2 coat protein, apparent KD of MS2 coat protein: 14.8

Result for UCGGCAGUGAACGAUACCAGCGUCACGUGGCCGGUGGUCACAUGAGGAUCACCCAUGUAACGCCCUUGGCAGCGUGCGCGUACCG [Zaancebi] , tested on MS2 coat protein, apparent KD of MS2 coat protein: 27.3

Result for GACAUGAGGAUCACCCAUGUUUUCUAUGAAGGAGCGUCGGAAAUGACAGGUAGGUCGCAUGGUAGGACUUGUAUCUUGUAUGUAG [EAA NP+V+V2 #10] , tested on MS2 coat protein, apparent KD of MS2 coat protein: 15.5

Result for UAAAACAUGAGGAUCACCCAUGUAAUUGAUACCAGAGUGAUGAUCCUCCCUUGGCAGCAAAACGCUGAUUGAUUACAAUCAGCGA [Mat - Same State Theophlline A - Mod of Eli - D24] , tested on MS2 coat protein, apparent KD of MS2 coat protein: 42.5

Result for UUUGAUAGAACAGAUACCAGCGUGUUAUAAAACAUGAGGAUCACCCAUGUAGUGAUCAAGCGCCCUUGGCAGCUGGUUUGUUAGG [7.I] , tested on MS2 coat protein, apparent KD of MS2 coat protein: 161

Result for AAACAUGAGGAUCACCCAUGUCCUCGUGAUCGAGGACCGGUACGGCCGCCACUCGGUCCUCGCGAGGUGGAGUCAAAGACUCCAA [Omei Trp A SS A v7] , tested on MS2 coat protein, apparent KD of MS2 coat protein: 69.5

Result for ACGGAUCGGAAACGAUCCGCGGCUAGGGUGCGAGGACCGGUACGGCCGCCACUCGGGUAACAUGAGGAUCACCCAUGUCCGAUUU [ETA NP+V+V2 #13 Same Structure] , tested on MS2 coat protein, apparent KD of MS2 coat protein: 198

Result for GACCGAUUAUAGUGCGAUUGUCUUGUGGAAGGAGCGCAGAGGACUGCAGGUAGGUCGCCACAUGAGGAUCACCCAUGUCAGGAUU [Reinorlaan] , tested on MS2 coat protein, apparent KD of MS2 coat protein: 40.5

Result for GCAUCCUAGUCGGCCGCCACUGCAGUAGCACCUGCUACAUGGAAACAUGAGGAUCACCCAUGUAGCAGGACCGGGACUAGGAUGC [(Trp1)-(TM)''-(TM)'-(Ms2)-(Trp2)_Design8] , tested on MS2 coat protein, apparent KD of MS2 coat protein: 236
